A collection of variants and their measured abundance fitness
B1: Peroxisome proliferator-activated receptor delta, residues 71 to 145; numbered along this chain, Q03181 (parent)
chain: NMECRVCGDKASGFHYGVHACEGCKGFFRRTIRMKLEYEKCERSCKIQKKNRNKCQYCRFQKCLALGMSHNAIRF

variants of: B1; experiment: abundance fitness (aPCA) (normalised: wild type 0, dead -1); higher = more abundant; growth selection in yeast, the domain comes from the species named; conditions: Homo sapiens
property.label: abundance fitness

    mutation_name     property_label     val
 0           R59Y  abundance fitness   0.107
 1           R33N  abundance fitness   0.082
 2           Q56P  abundance fitness  -0.025
 3           I73Y  abundance fitness  -0.097
 4           Y38N  abundance fitness   -0.72
 5           T31W  abundance fitness  -0.588
 6           A72K  abundance fitness  -0.175
 7           Q61G  abundance fitness  -0.639
 8           S44E  abundance fitness   0.139
 9            D9S  abundance fitness  -0.178
10           Q56R  abundance fitness  -0.227
11           C21T  abundance fitness   -0.83
12            D9M  abundance fitness  -0.436
13           S12Q  abundance fitness  -0.115
14           N71D  abundance fitness   0.103
15           C55K  abundance fitness  -0.646
16           R43G  abundance fitness  -0.085
17           F75E  abundance fitness   0.088
18           C63R  abundance fitness  -0.508
19           E39A  abundance fitness  -0.057
20           C24M  abundance fitness  -0.648
21           Y16A  abundance fitness  -0.065
